experiment: physchem; settings: organic solvent or mixture
Observation Type: solubility
Give the number first and the unit second.

Request: Quickly give me recorded solubility for CC(=O)O[C@H]1C(=O)[C@@]2(C)[C@H]([C@H](OC(=O)c3ccccc3)[C@]3(O)C[C@H](OC(=O)[C@H](O)[C@@H](NC(=O)c4ccccc4)c4ccccc4)C(C)=C1C3(C)C)[C@]1(OC(C)=O)CO[C@@H]1C[C@@H]2O [Paclitaxel]
Response: 200 mg/mL

Data origin: patent US11446253B2
